- METHOD_NOTES: Cmax in KLH-TNP-induced T-cell dependent immunization CD-1 mouse model at 30 mg/kg, po administered every third day for 14 days
- Format: ADME, organism-based
- Design: time 14 day, dose 30 mg/kg, route po
- CONDITION_NOTES: in vivo
ASSAY_READOUT: Cmax (µM)
One number for each entry, in µM.

Return Cmax (reported value) for this compound: CC(=O)N1c2ccc(C(N)=O)cc2[C@H](Nc2ncc(Cl)cn2)C[C@@H]1C
8.5

* * *

- EXPERIMENTAL_SYSTEM: Bromodomain-containing protein 4 (Homo sapiens, UniProt O60885)
- METHOD_NOTES: Inhibition of BRD4 BD2 (unknown origin) incubated for 30 mins in presence of fluorescent ligand by TR-FRET method
ASSAY_READOUT: IC50 (µM)
One number for each entry, in µM.

Take a look at these entries with their results.
Return IC50 (reported value) for this compound: CC(=O)N1c2ccc(C(N)=O)cc2[C@H](Nc2ncc(Cl)cn2)C[C@@H]1C
0.0631

Return IC50 (reported value) for this compound: CC(=O)N1c2ccc(C#N)cc2[C@H](Nc2ccc(C#N)cn2)C[C@@H]1C
0.158

Now let's try a different one.
Return IC50 (reported value) for this compound: CCNC(=O)c1ccc2c(c1)[C@H](Nc1cnc(C#N)cn1)C[C@H](C)N2C(C)=O
1
